- Tested on: PBMC from FIV-vaccinated cats
- experiment-description: Feline IL2 ELISpot of PBMC from vaccinated cats
- Assay type: cell-based, cat
- conditions: FIV peptides
property-name: IL2, frequency of responders

# annotated cases, reported IL2, frequency of responders shown
{"biosequence": "AAAPVNQMQQAVMPSA [FNC2]", "IL2, frequency of responders": "++++ (>54% (++++))"}
{"biosequence": "LLLILCLPTLVDCIRN [FTM8(20)]", "IL2, frequency of responders": "— (0%-1.4%(—))"}
{"biosequence": "KFLYTAFAMQELR [FTM4-3]", "IL2, frequency of responders": "++++ (>54% (++++))"}
{"biosequence": "AGLRQSLEQYQVVKQ [FSU4]", "IL2, frequency of responders": "— (0%-1.4%(—))"}

Lookup: Give IL2, frequency of responders for TLEKRPEILIFVNG [FPR1]
Found: — (0%-1.4%(—))
